System: B16-F10 murine melanoma
Assay Procedure: In vitro cytotoxicity assay, B16-F10 murine melanoma
Format: cell-based
Condition Details: B16-F10 murine melanoma; two values per compound; four-fold serial dilution
Entries and their measured In vitro cytotoxicity IC50, B-16-F10 follow.
Number only, in µg/mL; omit the unit.

COc1cc([C@@H]2c3cc4c(cc3[C@@H](O[C@@H]3O[C@@H]5CO[C@@H](C)O[C@H]5[C@H](O)[C@H]3O)[C@H]3COC(=O)[C@H]23)OCO4)cc2ncoc12 [Example 27, Etoposide benzoxazole derivative] ... 4.3

Attention now turns to another entry.
Q. # get_value(readout= In vitro cytotoxicity IC50, B-16-F10, system= B16-F10 murine melanoma) for COc1cc([C@@H]2c3cc4c(cc3[C@@H](O[C@@H]3O[C@@H]5CO[C@@H](C)O[C@H]5[C@H](O)[C@H]3O)[C@H]3COC(=O)[C@H]23)OCO4)cc(NC(C)=O)c1O [Example 7, 3'-Acetylamino-3'-desmethoxy etoposide]
A. 63

---

Tested on: HCT/VP35
Assay Procedure: In vitro cytotoxicity assay, HCT/VP35 etoposide-resistant human colon tumor
Format: cell-based
Condition Details: HCT/VP35, resistant to etoposide; two values per compound; four-fold serial dilution
Label 1 when In vitro cytotoxicity IC50, HCT/VP35 >= 100 µg/mL; otherwise -1.

COc1cc([C@@H]2c3cc4c(cc3[C@@H](O[C@@H]3O[C@@H]5CO[C@@H](C)O[C@H]5[C@H](O)[C@H]3O)[C@H]3COC(=O)[C@H]23)OCO4)cc(NC(=O)NCCCl)c1O ... 1

Q. Please check the record COc1cc([C@@H]2c3cc4c(cc3[C@@H](O[C@@H]3O[C@@H]5CO[C@@H](C)O[C@H]5[C@H](O)[C@H]3O)[C@H]3COC(=O)[C@H]23)OCO4)cc(N=Cc2ccsc2)c1O and state if its In vitro cytotoxicity IC50, HCT/VP35 is at or above 100 µg/mL.
A. -1

Q. Do the same for COc1cc([C@@H]2c3cc4c(cc3[C@@H](O[C@@H]3O[C@@H]5CO[C@@H](C)O[C@H]5[C@H](O)[C@H]3O)[C@H]3COC(=O)[C@H]23)OCO4)cc(N=Cc2cccc([N+](=O)[O-])c2)c1O please
A. -1

Q. One more molecule: COc1cc([C@@H]2c3cc4c(cc3[C@@H](O[C@@H]3O[C@@H]5CO[C@@H](C)O[C@H]5[C@H](O)[C@H]3O)[C@H]3COC(=O)[C@H]23)OCO4)cc(NS(C)(=O)=O)c1O
A. 1

Q. How about this molecule: COc1ccc(C=Nc2cc([C@@H]3c4cc5c(cc4[C@@H](O[C@@H]4O[C@@H]6CO[C@@H](C)O[C@H]6[C@H](O)[C@H]4O)[C@H]4COC(=O)[C@H]34)OCO5)cc(OC)c2O)cc1
A. -1

---

Tested on: SW900 human lung
Assay Procedure: In vitro cytotoxicity assay, SW900 human lung
Assay type: cell-based
Condition Details: SW900 human lung; two values per compound; four-fold serial dilution
Protocol: The in vitro cytotoxicity assay involved growing various mammalian tumor cells, including human tumor cells, on microtitre plates employing established tissue culture methods. The concentration of each compound required to inhibit cell growth by 50% (IC50) was then determined by a four-fold serial dilution technique. The validity of the method has been supported by a report published in the "Proceedings of the American Association for Cancer Research", 1984, 25:1891 (Abst. No. 328). […]
# note: boundary value 40 mg/L maps to n; In vitro cytotoxicity IC50, SW900 below it maps to y

Solved cases below.
COc1cc([C@@H]2c3cc4c(cc3[C@@H](O[C@@H]3O[C@@H]5CO[C@@H](C)O[C@H]5[C@H](O)[C@H]3O)[C@H]3COC(=O)[C@H]23)OCO4)cc([N+](=O)[O-])c1O [Example 24, 3'-Desmethoxy-3'-nitro etoposide] ... n
COc1cc([C@@H]2c3cc4c(cc3[C@@H](O[C@@H]3O[C@@H]5CO[C@@H](C)O[C@H]5[C@H](O)[C@H]3O)[C@H]3COC(=O)[C@H]23)OCO4)cc(NCN2C(=O)CCC2=O)c1O [Example 13] ... y
COc1cc([C@@H]2c3cc4c(cc3[C@@H](O[C@@H]3O[C@@H]5CO[C@@H](C)O[C@H]5[C@H](O)[C@H]3O)[C@H]3COC(=O)[C@H]23)OCO4)cc(N=Cc2ccncc2)c1O [Example 19] ... y
COc1cc([C@@H]2c3cc4c(cc3[C@@H](O[C@@H]3O[C@@H]5CO[C@@H](C)O[C@H]5[C@H](O)[C@H]3O)[C@H]3COC(=O)[C@H]23)OCO4)cc(NC(=O)NCc2ccccc2)c1O [Example 11] ... n

Now for a further compound.
Q. In vitro cytotoxicity IC50, SW900 strictly < 40 mg/L for this compound? COc1cc([C@@H]2c3cc4c(cc3[C@@H](O[C@@H]3O[C@@H]5CO[C@@H](C)O[C@H]5[C@H](O)[C@H]3O)[C@H]3COC(=O)[C@H]23)OCO4)cc(N=Cc2ccsc2)c1O [Example 17]
A. n

src = patent US4853467A
